Would you mind telling me the reported Kd of each entry?
- Tested On: T1, EsCas13d, nuclease-dead (Eubacterium siraeum, UniProt B0MS50, R295A;H300A;R849A;H854A)
- T1 sequence: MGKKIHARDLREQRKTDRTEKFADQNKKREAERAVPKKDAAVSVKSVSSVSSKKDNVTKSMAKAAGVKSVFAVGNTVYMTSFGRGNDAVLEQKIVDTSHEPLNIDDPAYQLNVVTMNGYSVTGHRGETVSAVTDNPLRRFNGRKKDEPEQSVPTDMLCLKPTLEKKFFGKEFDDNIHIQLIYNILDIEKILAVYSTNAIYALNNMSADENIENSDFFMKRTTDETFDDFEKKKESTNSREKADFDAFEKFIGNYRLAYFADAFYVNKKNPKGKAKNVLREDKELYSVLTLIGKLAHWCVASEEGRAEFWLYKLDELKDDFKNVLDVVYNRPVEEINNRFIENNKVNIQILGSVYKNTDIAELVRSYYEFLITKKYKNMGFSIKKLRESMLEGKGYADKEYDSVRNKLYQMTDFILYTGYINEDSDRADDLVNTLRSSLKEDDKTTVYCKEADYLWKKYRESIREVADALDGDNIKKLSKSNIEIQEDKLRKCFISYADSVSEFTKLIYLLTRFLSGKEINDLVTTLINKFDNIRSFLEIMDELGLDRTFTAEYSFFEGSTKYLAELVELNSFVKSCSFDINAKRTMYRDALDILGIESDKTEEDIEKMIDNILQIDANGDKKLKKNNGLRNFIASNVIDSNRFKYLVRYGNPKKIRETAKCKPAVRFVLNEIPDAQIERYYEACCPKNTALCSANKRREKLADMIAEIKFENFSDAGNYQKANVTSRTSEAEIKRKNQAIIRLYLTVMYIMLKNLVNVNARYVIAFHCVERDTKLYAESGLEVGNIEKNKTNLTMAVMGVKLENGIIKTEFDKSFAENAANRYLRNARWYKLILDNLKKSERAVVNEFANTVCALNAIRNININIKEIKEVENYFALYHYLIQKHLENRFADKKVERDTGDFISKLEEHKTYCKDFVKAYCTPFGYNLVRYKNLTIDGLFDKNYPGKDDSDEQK
- Procedure Details: crRNA (strand 1, pre-loaded); Mg2+; 40 mM Tris-HCl pH 7.5, 150 mM NaCl, 6 mM MgCl2, 1 mM DTT, 0.1% Tween-20, 0.2 mg/ml BSA; 25 C; 10 min per concentration, then washed
- Stated Conditions: tags: His6-TwinStrep-SUMO cleaved; N-terminal SNAP kept (SNAP-Surface 488); label: 3' end held by stalled T7 RNA polymerase
Numbers only; they are read as nM.

For record target 1 U3C,U10C (mixed) RNA 1: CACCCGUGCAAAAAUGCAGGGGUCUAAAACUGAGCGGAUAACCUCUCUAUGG RNA 2: GGGAAUGGAUCCACAUCUACGAAUUCGUACCAUAGAGAGGUCAUCCGCCCACCGAGAUCGGAAGAGCACACGU the listed Kd is 51

For record target 1 insA 3' of 22,insA 3' of 15 (mixed) RNA 1: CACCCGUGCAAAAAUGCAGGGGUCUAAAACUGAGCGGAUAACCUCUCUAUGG RNA 2: GGGAAUGGAUCCACAUCUACGAAUUCGUACACAUAGAGAAGGUUAUCCGCUCACCGAGAUCGGAAGAGCACACGU the listed Kd is 7.9
